test system: Hepatotoxicity; assay: FDA HLAED, gamma-glutamyl transferase (GGT) increase; details: human
recordedEndpoint: GGT Increase - Number of Reports

# molecule, GGT Increase - Number of Reports
records = [
    ("CCC(=O)O[C@H]1CC[C@H]2[C@@H]3CCC4=CC(=O)CC[C@]4(C)[C@H]3CC[C@]12C [TESTOSTERONE PROPIONATE]", "< 4"),
    ("O=C(c1ccccc1)c1ccc2n1CCC2C(=O)O (stereo unspecified) [KETOROLAC]", "< 4"),
    ("C[C@]12CC[C@@H]3c4ccc(OC(=O)Cc5ccc(N(CCCl)CCCl)cc5)cc4CC[C@H]3[C@@H]1CC[C@@H]2OC(=O)Cc1ccc(N(CCCl)CCCl)cc1 [ESTRADIOL MUSTARD]", "< 4"),
    ("N=C(N)N/N=C/c1c(Cl)cccc1Cl [GUANABENZ]", "< 4"),
    ("N=C(N)c1ccc(OCCCCCOc2ccc(C(=N)N)cc2)cc1 [PENTAMIDINE]", "< 4"),
]

Lab note: record GGT Increase - Number of Reports of CCOC(=O)C1=C(COCCN)NC(C)=C(C(=O)OC)C1c1ccccc1Cl (stereo unspecified) [AMLODIPINE] tested on Hepatotoxicity.
>= 4

Quote Hepatotoxicity GGT Increase - Number of Reports for entry N=C(N)NCC1COC2(CCCCC2)O1 (stereo unspecified) .
< 4

Under Hepatotoxicity: report GGT Increase - Number of Reports of COc1c(C)c2c(c(O)c1C/C=C(\C)CCC(=O)O)C(=O)OC2 [MYCOPHENOLIC ACID] .
< 4

Report its GGT Increase - Number of Reports with Hepatotoxicity as the test system: CCN[C@@H](C)Cc1cccc(C(F)(F)F)c1 [DEXFENFLURAMINE]
< 4

Enter measured GGT Increase - Number of Reports, system Hepatotoxicity, for the molecule shown: CC(C)NCC(O)COc1ccc(CCOCC2CC2)cc1 (stereo unspecified) [BETAXOLOL]
< 4

Enter measured GGT Increase - Number of Reports, system Hepatotoxicity, for the molecule shown: CCOC(=O)c1ccc(C#Cc2ccc3c(c2)C(C)(C)CCS3)nc1 [TAZAROTENE]
< 4

# return GGT Increase - Number of Reports of CN1C2CCCC1CC(NC(=O)c1nn(C)c3ccccc13)C2 (stereo unspecified) [GRANISETRON] (system: Hepatotoxicity)
< 4

# return GGT Increase - Number of Reports for CNCCC(Oc1ccc(C(F)(F)F)cc1)c1ccccc1 (stereo unspecified) [FLUOXETINE] , test system: Hepatotoxicity
>= 4

Provide GGT Increase - Number of Reports, recorded with Hepatotoxicity, of CC1COc2c(N3CCN(C)CC3)c(F)cc3c(=O)c(C(=O)O)cn1c23 (stereo unspecified) [OFLOXACIN]
< 4

# lookup: Hepatotoxicity GGT Increase - Number of Reports, key = O=C1CN(/N=C/c2ccc([N+](=O)[O-])o2)C(=O)N1 [NITROFURANTOIN]
>= 4

Please report GGT Increase - Number of Reports with Hepatotoxicity for item Nc1nc(Cl)nc2c1ncn2[C@H]1C[C@H](O)[C@@H](CO)O1 [CLADRIBINE] .
< 4

The measured values listed here are drawn from ChEMBL document CHEMBL1697781.
